# Target Under Test: Dihydroorotate dehydrogenase (quinone), mitochondrial (Plasmodium falciparum (isolate 3D7)) (UniProt Q08210)
# Sequence (Q08210 whole entry, looked up): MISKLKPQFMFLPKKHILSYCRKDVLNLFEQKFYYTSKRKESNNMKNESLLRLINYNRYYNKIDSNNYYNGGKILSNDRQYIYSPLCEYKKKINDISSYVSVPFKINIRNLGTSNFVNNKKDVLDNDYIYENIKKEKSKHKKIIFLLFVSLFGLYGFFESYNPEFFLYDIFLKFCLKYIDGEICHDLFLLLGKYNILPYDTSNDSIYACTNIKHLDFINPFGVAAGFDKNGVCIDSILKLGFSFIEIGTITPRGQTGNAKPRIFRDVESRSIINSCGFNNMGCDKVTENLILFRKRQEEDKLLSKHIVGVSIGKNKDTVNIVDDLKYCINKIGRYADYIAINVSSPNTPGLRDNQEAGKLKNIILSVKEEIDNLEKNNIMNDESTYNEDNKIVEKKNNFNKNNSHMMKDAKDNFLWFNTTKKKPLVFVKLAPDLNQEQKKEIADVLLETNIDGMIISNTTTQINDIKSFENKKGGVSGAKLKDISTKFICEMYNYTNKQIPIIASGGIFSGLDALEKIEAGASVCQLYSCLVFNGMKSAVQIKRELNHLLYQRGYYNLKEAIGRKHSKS
# Assay Text: PfDHODH enzyme inhibitors, primary screen, biochemical, C-terminal His tag, absorbance 600 nm (AID 1175);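 also: recombinant parasite enzyme with a five histidine tag at its C terminus; test concentration not given here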
# Applied Conditions: DCIP absorbance 600 nm, called active from +8 up or from −8 down
Calls of active or inactive are those of the source.
Please reply with one of these outcomes: active, inactive

[ask] Could you check what this test reported for COc1cc2c(cc1OC)CN(C(=O)[C@H]1[C@@H]3C(=O)O[C@@H](c4ccccc4)[C@@H](c4ccccc4)N3[C@@H](c3ccccc3OCCO)[C@]13C(=O)Nc1ccc(C#CC4(O)CCCCCC4)cc13)CC2 ?
[reply] inactive

[ask] Could you check what this test reported for COC(=O)[C@H]1[C@@H]2COc3ccccc3[C@H]2N[C@H]1C(=O)OC ?
[reply] active

[ask] Could you check what this test reported for CCC(=O)[C@]12O[C@@]3([C@@H]4C(=O)OCC[C@@H]41)N(CC)C(C)=C(C(=O)OC)[C@@H](c1ccccc1)N3C2=O ?
[reply] inactive

Sourced from PubChem BioAssay
